Tested on: HTB-54
Assay: MTT cell viability assay, HTB-54
Format: cell-based, human
Settings: Homo sapiens, HTB-54; MTT, 48 h, mean ± SD of three experiments; read-out: IC50 HTB-54 (Lung)
Task for the reader: assign each of the following compounds its reported IC50.
Write it as a number; the unit µM goes unstated.

Please state recorded IC50 (tested on HTB-54) of CC(=O)Oc1ccccc1C(=O)NC(=[Se])NC(C)C [Compound 16]
23

Please state recorded IC50 (tested on HTB-54) of CC(C)NC(=[Se])NC(=O)c1ccc2c(c1)OCO2 [Compound 19]
21.9

Please state recorded IC50 (tested on HTB-54) of O=C(NC(=[Se])NC1CCCCC1)c1cccs1 [Compound 10]
10.1

Please state recorded IC50 (tested on HTB-54) of O=C(NC(=[Se])NC1CCCCC1)c1ccc2c(c1)OCO2 [Compound 12]
10.7

Please state recorded IC50 (tested on HTB-54) of CC(C)NC(=[Se])NC(=O)c1ccccc1 [Compound 15]
26.4

###

Task for the reader: assign each of the following compounds its reported melting point.

Which measured melting point value corresponds to CC(C)N=C(NC(C)C)[Se]C(=O)c1cccs1 [Compound 6] ?
120 to 122 °C

Which measured melting point value corresponds to CC(=O)Oc1ccccc1C(=O)NC(=[Se])NC(C)C [Compound 16] ?
75 to 77 °C

Which measured melting point value corresponds to CC(C)NC(=[Se])NC(=O)c1cccs1 [Compound 17] ?
120 to 122 °C

Which measured melting point value corresponds to CC(=O)Oc1ccccc1C(=O)[Se]C(=NC1CCCCC1)NC1CCCCC1 [Compound 1] ?
96 to 97 °C

Which measured melting point value corresponds to CC(C)NC(=[Se])NC(=O)/C=C/c1ccc2c(c1)OCO2 [Compound 21] ?
172 to 174 °C

Which measured melting point value corresponds to O=C(/C=C/c1ccc2c(c1)OCO2)NC(=[Se])NC1CCCCC1 [Compound 14] ?
149 to 151 °C

Which measured melting point value corresponds to CC(C)NC(=[Se])NC(=O)/C=C/c1cccs1 [Compound 20] ?
148 to 149 °C

Which measured melting point value corresponds to O=C(NC(=[Se])NC1CCCCC1)c1ccccc1 [Compound 8] ?
71 to 73 °C

Which measured melting point value corresponds to O=C(/C=C/c1ccccc1)[Se]C(=NC1CCCCC1)NC1CCCCC1 [Compound 2] ?
156 to 158 °C

Which measured melting point value corresponds to O=C(/C=C/c1ccccc1)NC(=[Se])NC1CCCCC1 [Compound 11] ?
140 to 142 °C

Which measured melting point value corresponds to CC(C)N=C(NC(C)C)[Se]C(=O)Cc1cccs1 [Compound 5] ?
108 to 110 °C

Which measured melting point value corresponds to CC(C)NC(=[Se])NC(=O)c1ccccc1O [Compound 22] ?
162 to 164 °C

Which measured melting point value corresponds to O=C(NC(=[Se])NC1CCCCC1)c1ccc2c(c1)OCO2 [Compound 12] ?
117 to 119 °C

###

Task for the reader: assign each of the following compounds its reported percentage of cell growth, MDA-MB-231.
Test system: MDA-MB-231
Assay: MTT cell viability assay, MDA-MB-231
Format: cell-based, human
Settings: 10 µM, 48 h, MTT screening (Figure S1)
Write it as a number; the unit % goes unstated.

Please state recorded percentage of cell growth, MDA-MB-231 (tested on MDA-MB-231) of CC(C)N=C(NC(C)C)[Se]C(=O)c1cccs1
124.62

Please state recorded percentage of cell growth, MDA-MB-231 (tested on MDA-MB-231) of CC(=O)Oc1ccccc1C(=O)NC(=[Se])NC1CCCCC1
1.88

Please state recorded percentage of cell growth, MDA-MB-231 (tested on MDA-MB-231) of O=C(/C=C/c1ccccc1)[Se]C(=NC1CCCCC1)NC1CCCCC1
-19.52

Please state recorded percentage of cell growth, MDA-MB-231 (tested on MDA-MB-231) of CC(C)NC(=[Se])NC(=O)c1ccccc1
-59.41

Please state recorded percentage of cell growth, MDA-MB-231 (tested on MDA-MB-231) of O=C(/C=C/c1ccccc1)NC(=[Se])NC1CCCCC1
71.20

Please state recorded percentage of cell growth, MDA-MB-231 (tested on MDA-MB-231) of O=C(/C=C/c1ccc2c(c1)OCO2)NC(=[Se])NC1CCCCC1
83.89

Please state recorded percentage of cell growth, MDA-MB-231 (tested on MDA-MB-231) of CC(C)NC(=[Se])NC(=O)c1cccs1
20.49

Please state recorded percentage of cell growth, MDA-MB-231 (tested on MDA-MB-231) of CC(C)N=C(NC(C)C)[Se]C(=O)c1ccccc1
129.19

Please state recorded percentage of cell growth, MDA-MB-231 (tested on MDA-MB-231) of CC(=O)Oc1ccccc1C(=O)NC(=[Se])NC(C)C
24.61

Please state recorded percentage of cell growth, MDA-MB-231 (tested on MDA-MB-231) of CC(C)NC(=[Se])NC(=O)/C=C/c1ccccc1
65.14

Please state recorded percentage of cell growth, MDA-MB-231 (tested on MDA-MB-231) of O=C(NC(=[Se])NC1CCCCC1)c1cccs1
107.48

Please state recorded percentage of cell growth, MDA-MB-231 (tested on MDA-MB-231) of CC(C)NC(=[Se])NC(=O)c1ccc2c(c1)OCO2
-45.41

Please state recorded percentage of cell growth, MDA-MB-231 (tested on MDA-MB-231) of CC(C)NC(=[Se])NC(=O)c1ccccc1O
73.13

Please state recorded percentage of cell growth, MDA-MB-231 (tested on MDA-MB-231) of O=C(NC(=[Se])NC1CCCCC1)c1ccccc1
15.90

Please state recorded percentage of cell growth, MDA-MB-231 (tested on MDA-MB-231) of CC(C)NC(=[Se])NC(=O)/C=C/c1ccc2c(c1)OCO2
-6.05

Please state recorded percentage of cell growth, MDA-MB-231 (tested on MDA-MB-231) of CC(C)N=C(NC(C)C)[Se]C(=O)Cc1cccs1
115.35

Please state recorded percentage of cell growth, MDA-MB-231 (tested on MDA-MB-231) of CC(=O)Oc1ccccc1C(=O)[Se]C(=NC1CCCCC1)NC1CCCCC1
39.10

Please state recorded percentage of cell growth, MDA-MB-231 (tested on MDA-MB-231) of CC(=O)Oc1ccccc1C(=O)[Se]C(=NC(C)C)NC(C)C
-41.78

Please state recorded percentage of cell growth, MDA-MB-231 (tested on MDA-MB-231) of CC(C)N=C(NC(C)C)[Se]C(=O)c1ccc2c(c1)OCO2
119.84

Please state recorded percentage of cell growth, MDA-MB-231 (tested on MDA-MB-231) of O=C(NC(=[Se])NC1CCCCC1)c1ccc2c(c1)OCO2
-7.07

Please state recorded percentage of cell growth, MDA-MB-231 (tested on MDA-MB-231) of O=C(/C=C/c1cccs1)NC(=[Se])NC1CCCCC1
-21.69

Please state recorded percentage of cell growth, MDA-MB-231 (tested on MDA-MB-231) of CC(C)NC(=[Se])NC(=O)/C=C/c1cccs1
65.39

###

Tested on: 184-B5
Assay: MTT cell viability assay, non-malignant 184-B5
Assay type: cell-based
Details: Homo sapiens, 48 h, mean ± SD of three experiments, read-out: IC50 184-B5 (Breast, non-tumoral)
Rule: IC50 below 20 µM gives Satisfied, anything at or above gives Not satisfied.

Decide: IC50 of O=C(NC(=[Se])NC1CCCCC1)c1cccs1 strictly below 20 µM?
Not satisfied

Decide: IC50 of CC(C)NC(=[Se])NC(=O)c1cccs1 strictly below 20 µM?
Not satisfied

Decide: IC50 of O=C(NC(=[Se])NC1CCCCC1)c1ccccc1 strictly below 20 µM?
Not satisfied

Decide: IC50 of CC(C)NC(=[Se])NC(=O)c1ccccc1 strictly below 20 µM?
Satisfied

Decide: IC50 of CC(=O)Oc1ccccc1C(=O)NC(=[Se])NC(C)C strictly below 20 µM?
Not satisfied

Decide: IC50 of O=C(NC(=[Se])NC1CCCCC1)c1ccc2c(c1)OCO2 strictly below 20 µM?
Not satisfied

Decide: IC50 of CC(=O)Oc1ccccc1C(=O)[Se]C(=NC(C)C)NC(C)C strictly below 20 µM?
Satisfied

Decide: IC50 of CC(=O)Oc1ccccc1C(=O)NC(=[Se])NC1CCCCC1 strictly below 20 µM?
Satisfied

Decide: IC50 of CC(=O)Oc1ccccc1C(=O)[Se]C(=NC1CCCCC1)NC1CCCCC1 strictly below 20 µM?
Satisfied

Decide: IC50 of CC(C)NC(=[Se])NC(=O)c1ccc2c(c1)OCO2 strictly below 20 µM?
Not satisfied
